RUN DESCRIPTION: pH of aqueous solution of solubilizing compound mixed with oleic acid
Type: physicochemical
ASSAY SETUP: solubilizing compound in water with 0.833 mol equivalents of oleic acid
Hi there, I'd appreciate the recorded pH for every entry that follows.
One number for each entry.

Check out these entries, answers already filled in.
(Q) Quick check: pH of CN/C(=N\[N+](=O)[O-])NCc1cnc(Cl)s1 ?
(A) 9.81

(Q) # repeat for Cc1ccccc1NC(=N)NC(=N)N [1-(o-Tolyl)biguanide]
(A) 11.53

(Q) Next entry: NC(N)=O [Urea, reference compound]
(A) 8.59

(Q) Can you handle Cl.N=C(N)NC[C@H](N)C(=O)O next?
(A) 11.05

(Q) Another: Cl.N=C(N)Nc1ccc(C(=O)O)cc1 [4-Guanidinobenzoic acid hydrochloride]
(A) 11.19

(Q) What do you get for N=C(N)NCCCC(=O)O ?
(A) 10.41

Please report pH for every entry that follows.
1. Cc1c[nH]cn1
2. N=C(N)NCCCCCC(=O)O
3. CC(=O)NC1CCSC1=O (racemic) [DL-N-Acetylhomocysteine thiolactone, reference compound]
4. Nc1nc(N)nc(N)n1
5. NC(N)=NCCCC[C@H](N)C(=O)O

(A)
8.90
9.01
10.70
8.25
8.66

====

RUN DESCRIPTION: Dynamic laser light scattering (DLS) of oleic acid micro-/nanoemulsions
Assay type: physicochemical
ASSAY SETUP: percentage of the peak in the sample
# label = true if Part < 90% else false

Record excerpt, results attached:
(Q) Take the compound Cc1c[nH]cn1 and say whether its Part is less than 90%.
(A) false

(Q) Same lookup for NC(N)=NCCCC[C@H](N)C(=O)O , please.
(A) true

(Q) Proceed to Cl.N=C(N)NC[C@H](N)C(=O)O
(A) true

---
(Q) Please indicate whether the reported Part of NCCCC[C@H](N)C(=O)O is strictly below 90%.
(A) false

(Q) Request: CC(=O)NCC(=O)O.CC(=O)NCC(=O)O.N=C(N)c1ccc(N=NNc2ccc(C(=N)N)cc2)cc1 [Diminazene aceturate (basic), Diminazene aceturate, reference compound]
(A) true

(Q) Let us now turn to N=C(N)NCCC(=O)O
(A) true

(Q) Would you kindly repeat that for O=C(O)CCCNC1=NCCN1 ?
(A) true

====

RUN DESCRIPTION: log P of the test substance
ASSAY SETUP: water (H2O), test substance mixed with oleic acid
Where a name gives a salt, the structure may show the parent alone.
Task for the reader: assign each of the following molecules its reported logP.
One number for each entry.

Some entries whose results are on file:
(Q) What does the record list as logP for [H]/N=C(\N/C(=N/[H])Nc1ccc(Cl)cc1)NC(C)C [Proguanil hydrochloride, 1-(4-chlorphenyl)-5-isopropylbi-guanide, reference compound] ?
(A) 2.53

(Q) Entry O=C(O)CCCNC1=NCCN1 please
(A) -1.6

Below are some molecules; for each one, tell me its logP.
1. N=C(N)N[C@@H](CCC(=O)O)C(=O)O [(S)-(−)-2-Guanidinoglutaric acid]
2. Cc1ccccc1NC(=N)Nc1ccccc1C

(A)
-3.14
3.01

====

RUN DESCRIPTION: pH of aqueous solution of solubilizing compound mixed with oleic acid
Assay type: physicochemical
ASSAY SETUP: solubilizing compound in water with 0.833 mol equivalents of oleic acid
Please use met whenever pH is not below 9, and not met whenever it is.

(Q) Confirm if pH reported for the compound NC(N)=NCC(=O)O is 9 or above.
(A) not met

Others:
(Q) Evaluate N=C(N)NCCCCN.O=S(=O)(O)O [Agmatin sulfate] : pH at minimum 9?
(A) met

(Q) Same read-out for CN(C)C(N)=NCCC[C@H](N)C(=O)O.Cl.Cl [NG,NG-Dimethylarginine dihydrochloride] ?
(A) met
